- Test system: E. cloacae
- measurementDescription: AK assay 384-well format, Prestwick library screening
- Assay type: cell-based, Enterobacter cloacae
- runConditions: Enterobacter cloacae, 3 h, planktonic E. cloacae; 50 μM final drug concentration; […]; read-out: AK-based Prestwick library screening result, E. cloacae (fold increase in extracellular AK activity)
Counter-ions that a name gives are not always drawn.
Use 1 as the dividing line for fold induction at 50 µM, with the line itself on the Met side and lower values as Not met.

| molecule | group |
| --- | --- |
| Cc1nc2n(c(=O)c1CCN1CCC(c3noc4cc(F)ccc34)CC1)CCCC2 [Risperidone] | Met |
| CCN1C[C@]2(COC)CC[C@H](O)[C@@]34C5C[C@@H]6[C@@H](OC)C[C@](O)(C(CC23)C14)C5[C@H]6OC(C)=O (stereo partly drawn) [Condelphine] | Met |
| CCC1(c2cccc(O)c2)CCCCN(C)C1 (stereo not drawn) [Meptazinol hydrochloride] | Met |
| O=S(=O)(O)c1cc(O)ccc1O [Ethamsylate] | Not met |
| CN(C)[C@@H]1C(O)=C(C(=O)NCNCCCC[C@H](N)C(=O)O)C(=O)[C@@]2(O)C(O)=C3C(=O)c4c(O)cccc4[C@@](C)(O)[C@H]3C[C@@H]12 [Lymecycline] | Met |
| CC1(C)S[C@@H]2[C@H](NC(=O)[C@H](N)c3ccccc3)C(=O)N2[C@H]1C(=O)OC1OC(=O)c2ccccc21 (stereo partly drawn) [Talampicillin hydrochloride] | Met |

###

- System: E. coli
- measurementDescription: AK assay 384-well format, Prestwick library screening
- Type: cell-based, Escherichia coli
- runConditions: Escherichia coli, 3 h, 50 μM final drug concentration; planktonic; […]; read-out: AK-based Prestwick Library Screening Results, E. coli (fold increase in extracellular AK activity)
Counter-ions that a name gives are not always drawn.

| molecule | fold induction at 50 µM |
| --- | --- |
| COc1cc([C@@H]2c3cc4c(cc3[C@@H](O[C@@H]3O[C@@H]5CO[C@@H](C)O[C@H]5[C@H](O)[C@H]3O)[C@H]3COC(=O)[C@H]23)OCO4)cc(OC)c1O [Etoposide] | 1.2 |
| O=C1C=CC(=O)c2c1ccc1c2ccc2ccccc21 | 1.1 |
| C[C@@]12C(=O)OC(=O)[C@]1(C)[C@H]1CC[C@@H]2O1 | 0.6 |
| COc1ccc2c(OC)c3ccoc3nc2c1OC | 0.6 |
| CCN1C[C@]2(C)CC[C@H](OC)[C@@]34C1[C@]1(OCO[C@@]15C[C@H](OC)[C@H]1C[C@]3(O)[C@@H]5[C@H]1OC)[C@@H](OC(C)=O)[C@H]24 | 0.9 |
| COc1ccn(C)c(=O)c1C#N | 0.8 |
| CCN1C[C@]2(COC)CC[C@H](OC)[C@]34C5C[C@@H]6[C@@H](OC)C[C@@]7(OCO[C@@]7(C13)[C@@H](O)C24)C5[C@H]6OC (some centres unmarked) | 0.8 |
| C=C1[C@@H]2CC[C@H]3[C@]4(C)C[C@H](O[C@@H]5O[C@H](CO)[C@@H](OS(=O)(=O)O)[C@H](OS(=O)(=O)O)[C@H]5OC(=O)CC(C)C)C[C@@H](C(=O)O)[C@H]4CC[C@]3(C2)[C@@H]1O [Atractyloside potassium salt] | 0.7 |
| CO[C@H](C)[C@](O)(C(=O)OCC1=CCN2CC[C@H](O)[C@@H]12)C(C)C | 1.2 |
| Cc1[nH]ccc2c1[nH]c1cc(=O)ccc12 [Harmol hydrochloride monohydrate] | 1.4 |
| CCn1cc(C(=O)O)c(=O)c2cnc(N3CCNCC3)nc21 | 14.7 |
| COc1cnc(NS(=O)(=O)c2ccc(N)cc2)nc1 | 1.3 |
| c1cncc([C@@H]2CCCCN2)c1 | 1 |
| CCC1(CC)C(=O)C=CNC1=O | 0.7 |
